- studyTarget: Phosphatidylinositol 4,5-bisphosphate 3-kinase catalytic subunit delta isoform (Homo sapiens, UniProt O00329)
- Sequence (O00329 whole entry, canonical isoform): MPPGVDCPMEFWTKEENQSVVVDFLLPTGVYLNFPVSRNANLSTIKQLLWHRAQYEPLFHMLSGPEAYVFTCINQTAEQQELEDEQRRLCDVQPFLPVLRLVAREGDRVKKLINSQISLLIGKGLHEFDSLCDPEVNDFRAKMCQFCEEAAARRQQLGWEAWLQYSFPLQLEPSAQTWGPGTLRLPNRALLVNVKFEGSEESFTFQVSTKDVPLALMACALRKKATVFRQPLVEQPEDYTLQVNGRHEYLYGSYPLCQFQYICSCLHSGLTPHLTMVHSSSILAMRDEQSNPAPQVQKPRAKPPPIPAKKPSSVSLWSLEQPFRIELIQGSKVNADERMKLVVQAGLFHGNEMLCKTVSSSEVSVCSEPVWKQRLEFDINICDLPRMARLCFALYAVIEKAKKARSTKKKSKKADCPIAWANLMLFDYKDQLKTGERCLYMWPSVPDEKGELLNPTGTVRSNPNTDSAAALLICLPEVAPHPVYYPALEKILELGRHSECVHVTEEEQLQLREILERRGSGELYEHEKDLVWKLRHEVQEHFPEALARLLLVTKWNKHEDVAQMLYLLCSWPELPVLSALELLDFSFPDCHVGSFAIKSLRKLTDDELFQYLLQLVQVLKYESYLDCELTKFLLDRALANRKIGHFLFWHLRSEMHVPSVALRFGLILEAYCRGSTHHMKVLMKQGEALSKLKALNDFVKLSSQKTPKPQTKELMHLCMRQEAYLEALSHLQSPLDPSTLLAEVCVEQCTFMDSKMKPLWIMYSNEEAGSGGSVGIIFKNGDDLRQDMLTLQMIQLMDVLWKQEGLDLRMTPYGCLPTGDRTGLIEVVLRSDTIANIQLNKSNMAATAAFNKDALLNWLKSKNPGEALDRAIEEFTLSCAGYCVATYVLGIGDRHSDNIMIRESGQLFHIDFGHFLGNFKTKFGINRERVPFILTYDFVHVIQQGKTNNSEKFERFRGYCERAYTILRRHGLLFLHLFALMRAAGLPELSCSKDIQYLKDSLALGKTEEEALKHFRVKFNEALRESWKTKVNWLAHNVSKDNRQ
Items are presented alongside their recorded IC50.
Reply numerically in nM, unit not repeated.

Could you tell me which IC50 is on file for CN(C1CCCN(Cc2cc3nc(-c4cnc(N)nc4)nc(N4CCOCC4)c3s2)C1)S(C)(=O)=O (racemic) ?
5.01

What value of measured IC50 is listed for CC(=O)N(C)C1CCCN(Cc2cc3nc(-c4cccc5[nH]ccc45)nc(N4CCOCC4)c3s2)C1 (racemic) ?
25.1

IC50 for CN(C1CCN(Cc2cc3nc(-c4cccc5[nH]ccc45)nc(N4CCOCC4)c3s2)CC1)S(C)(=O)=O ?
12.6

* * *

Measured IC50, listed per entry for reference.
- studyTarget: Phosphatidylinositol 4,5-bisphosphate 3-kinase catalytic subunit beta isoform (Homo sapiens, UniProt P42338)
- Sequence (P42338 whole entry, canonical isoform): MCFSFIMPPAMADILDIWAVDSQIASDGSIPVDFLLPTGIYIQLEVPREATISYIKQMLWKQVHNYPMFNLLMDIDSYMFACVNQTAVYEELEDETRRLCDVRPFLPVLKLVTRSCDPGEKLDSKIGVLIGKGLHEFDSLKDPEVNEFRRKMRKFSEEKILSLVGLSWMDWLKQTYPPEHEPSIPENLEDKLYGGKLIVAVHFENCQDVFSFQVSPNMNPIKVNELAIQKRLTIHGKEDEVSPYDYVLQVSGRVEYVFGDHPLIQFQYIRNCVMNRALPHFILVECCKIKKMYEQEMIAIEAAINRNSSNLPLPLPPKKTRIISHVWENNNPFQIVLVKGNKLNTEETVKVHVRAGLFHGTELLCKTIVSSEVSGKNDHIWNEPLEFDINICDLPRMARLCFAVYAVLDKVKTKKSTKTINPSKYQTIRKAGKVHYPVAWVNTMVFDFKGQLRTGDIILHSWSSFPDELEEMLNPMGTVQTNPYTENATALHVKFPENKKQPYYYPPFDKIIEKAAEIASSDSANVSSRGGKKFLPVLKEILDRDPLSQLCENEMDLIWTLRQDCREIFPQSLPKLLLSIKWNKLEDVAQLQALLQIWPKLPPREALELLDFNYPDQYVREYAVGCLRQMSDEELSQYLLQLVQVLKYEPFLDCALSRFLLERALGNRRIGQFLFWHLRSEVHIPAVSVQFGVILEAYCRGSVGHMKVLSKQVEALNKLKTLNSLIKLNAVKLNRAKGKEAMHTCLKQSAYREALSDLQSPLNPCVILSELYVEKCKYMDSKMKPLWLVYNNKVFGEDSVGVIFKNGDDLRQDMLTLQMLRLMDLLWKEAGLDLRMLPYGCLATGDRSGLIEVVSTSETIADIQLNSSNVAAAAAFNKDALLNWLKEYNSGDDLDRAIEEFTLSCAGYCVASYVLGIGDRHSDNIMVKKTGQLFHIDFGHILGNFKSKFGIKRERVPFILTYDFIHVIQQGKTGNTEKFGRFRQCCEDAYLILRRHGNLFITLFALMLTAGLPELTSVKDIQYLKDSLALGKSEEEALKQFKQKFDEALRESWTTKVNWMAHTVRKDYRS
- method: Inhibition of PI3Kbeta (unknown origin) using biotin-PIP3 as substrate preincubated for 15 mins followed by substrate addition and measured after 60 mins by fluorescence polarization assay
Report as a plain number; the unit nM is understood.

Sample CS(=O)(=O)NC1CCN(Cc2cc3nc(-c4cnc(N)nc4)nc(N4CCOCC4)c3s2)C1 (racemic) — what was its IC50?
158

Which IC50 reading was recorded for the compound COCC(=O)N(C)C1CCN(Cc2cc3nc(-c4cnc(N)nc4)nc(N4CCOCC4)c3s2)C1 (racemic) ?
251

Continuing:
I have this compound here, CC(=O)NC1CCCN(Cc2cc3nc(-c4cnc(N)nc4)nc(N4CCOCC4)c3s2)C1 (racemic) , and I need its recorded IC50.
2000

Query: IC50; subject: CC(=O)N(C)C1CCCN(Cc2cc3nc(-c4cnc(N)nc4)nc(N4CCOCC4)c3s2)C1 (racemic)
2000

* * *

- studyTarget: Phosphatidylinositol 4,5-bisphosphate 3-kinase catalytic subunit alpha isoform (Homo sapiens, UniProt P42336)
- Sequence (P42336 whole entry, canonical isoform): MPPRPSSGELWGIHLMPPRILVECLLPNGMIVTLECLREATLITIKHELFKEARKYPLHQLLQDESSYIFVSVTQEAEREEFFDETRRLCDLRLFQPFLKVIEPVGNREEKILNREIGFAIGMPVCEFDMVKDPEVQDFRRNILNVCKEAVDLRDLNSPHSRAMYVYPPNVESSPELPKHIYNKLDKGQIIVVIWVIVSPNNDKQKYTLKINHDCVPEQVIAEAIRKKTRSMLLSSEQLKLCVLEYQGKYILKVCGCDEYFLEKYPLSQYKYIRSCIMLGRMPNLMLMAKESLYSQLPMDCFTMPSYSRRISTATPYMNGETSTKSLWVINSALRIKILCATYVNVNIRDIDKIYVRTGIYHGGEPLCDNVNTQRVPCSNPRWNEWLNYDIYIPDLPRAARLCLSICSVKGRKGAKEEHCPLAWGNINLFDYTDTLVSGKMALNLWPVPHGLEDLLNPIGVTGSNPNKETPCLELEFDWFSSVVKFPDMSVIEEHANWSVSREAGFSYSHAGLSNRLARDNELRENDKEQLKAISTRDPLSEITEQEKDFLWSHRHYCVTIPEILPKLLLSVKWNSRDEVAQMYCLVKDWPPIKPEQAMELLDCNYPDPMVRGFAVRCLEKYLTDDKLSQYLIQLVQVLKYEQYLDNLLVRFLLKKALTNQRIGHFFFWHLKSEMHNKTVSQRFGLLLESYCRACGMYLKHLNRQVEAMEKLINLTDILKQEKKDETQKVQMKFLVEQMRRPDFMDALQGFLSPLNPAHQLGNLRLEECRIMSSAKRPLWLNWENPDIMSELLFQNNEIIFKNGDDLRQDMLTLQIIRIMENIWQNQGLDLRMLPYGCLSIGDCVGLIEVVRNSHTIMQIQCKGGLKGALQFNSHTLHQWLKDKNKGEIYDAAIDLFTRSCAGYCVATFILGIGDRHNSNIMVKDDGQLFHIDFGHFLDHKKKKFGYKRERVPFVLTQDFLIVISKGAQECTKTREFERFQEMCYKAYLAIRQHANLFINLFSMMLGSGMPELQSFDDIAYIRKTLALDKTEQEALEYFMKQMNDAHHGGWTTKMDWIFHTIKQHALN
The reader will find reported pIC50 values listed item by item below.
Give only the number. pIC50 is defined as minus log10 of concentration in molar units.

Solved entries:
Please report the recorded pIC50 for CN(C1CCN(Cc2cc3nc(-c4cnc(N)nc4)nc(N4CCOCC4)c3s2)CC1)S(C)(=O)=O .
7.80

Bench note: what pIC50 did CC(=O)N[C@@H]1CCN(Cc2cc3nc(-c4cnc(N)nc4)nc(N4CCOCC4)c3s2)C1 show?
6.90

Endpoint output: pIC50 of CC(=O)NC1CCN(Cc2cc3nc(-c4cccc5[nH]ncc45)nc(N4CCOCC4)c3s2)C1 (racemic) . Value?
6.30

More entries:
What does the record list as pIC50 for CS(=O)(=O)NC1CCN(Cc2cc3nc(-c4cccc5[nH]ncc45)nc(N4CCOCC4)c3s2)CC1 ?
6.90

Look at this compound and give its reported pIC50. CN(C1CCCN(Cc2cc3nc(-c4cnc(N)nc4)nc(N4CCOCC4)c3s2)C1)S(C)(=O)=O (racemic)
7.40

Quick one: pIC50 for CC(=O)NC1CCN(Cc2cc3nc(-c4cccc5[nH]ccc45)nc(N4CCOCC4)c3s2)C1 (racemic) ?
5.50

# query: pIC50 of entry CC(=O)NC1CCN(Cc2cc3nc(-c4cnc(N)nc4)nc(N4CCOCC4)c3s2)CC1
6.90

* * *

Reported pIC50 values are given for each entry in this list.
- studyTarget: Phosphatidylinositol 4,5-bisphosphate 3-kinase catalytic subunit alpha isoform (Homo sapiens, UniProt P42336)
pIC50 here is simply -log10 of the concentration when that concentration is written in mol/L.

Example molecules with recorded pIC50:
Request the reported pIC50 associated with CC(=O)N(C)C1CCN(Cc2cc3nc(-c4cnc(N)nc4)nc(N4CCOCC4)c3s2)CC1
7.40

Fill in the blank: the reported pIC50 of COCC(=O)N(C)C1CCCN(Cc2cc3nc(-c4cccc5[nH]ncc45)nc(N4CCOCC4)c3s2)C1 (racemic) is ____.
6.10

Which pIC50 reading was recorded for the molecule CS(=O)(=O)NC1CCCN(Cc2cc3nc(-c4cnc(N)nc4)nc(N4CCOCC4)c3s2)C1 (racemic) ?
7.70

Others:
Which pIC50 value is on record for COCC(=O)N(C)C1CCN(Cc2cc3nc(-c4cccc5[nH]ncc45)nc(N4CCOCC4)c3s2)C1 (racemic) ?
6.20

Data request, read-out pIC50, for COCC(=O)NC1CCN(Cc2cc3nc(-c4cnc(N)nc4)nc(N4CCOCC4)c3s2)C1 (racemic)
7.40

So what does the record say about pIC50 for CN(C1CCN(Cc2cc3nc(-c4cnc(N)nc4)nc(N4CCOCC4)c3s2)C1)S(C)(=O)=O (racemic) ?
8.10

May I ask what pIC50 has been recorded for COCC(=O)NC1CCN(Cc2cc3nc(-c4cccc5[nH]ncc45)nc(N4CCOCC4)c3s2)C1 (racemic) ?
6.50

Please look up its pIC50: CNC(=O)NC1CCN(Cc2cc3nc(-c4cccc5[nH]ncc45)nc(N4CCOCC4)c3s2)C1 (racemic)
6.50

* * *

- studyTarget: Phosphatidylinositol 4,5-bisphosphate 3-kinase catalytic subunit delta isoform (Homo sapiens)
Entries and their measured IC50 follow.
Lab book: enter the figure in nM, no units written.

What does the data say about its IC50? Entry: CNC(=O)NC1CCN(Cc2cc3nc(-c4cccc5[nH]ncc45)nc(N4CCOCC4)c3s2)C1 (racemic)
200

Next up:
What does the record list as IC50 for COCC(=O)NC1CCN(Cc2cc3nc(-c4cccc5[nH]ccc45)nc(N4CCOCC4)c3s2)C1 (racemic) ?
100

* * *

- studyTarget: Phosphatidylinositol 4,5-bisphosphate 3-kinase catalytic subunit gamma isoform (Homo sapiens)
- Sequence (P48736 whole entry, canonical isoform): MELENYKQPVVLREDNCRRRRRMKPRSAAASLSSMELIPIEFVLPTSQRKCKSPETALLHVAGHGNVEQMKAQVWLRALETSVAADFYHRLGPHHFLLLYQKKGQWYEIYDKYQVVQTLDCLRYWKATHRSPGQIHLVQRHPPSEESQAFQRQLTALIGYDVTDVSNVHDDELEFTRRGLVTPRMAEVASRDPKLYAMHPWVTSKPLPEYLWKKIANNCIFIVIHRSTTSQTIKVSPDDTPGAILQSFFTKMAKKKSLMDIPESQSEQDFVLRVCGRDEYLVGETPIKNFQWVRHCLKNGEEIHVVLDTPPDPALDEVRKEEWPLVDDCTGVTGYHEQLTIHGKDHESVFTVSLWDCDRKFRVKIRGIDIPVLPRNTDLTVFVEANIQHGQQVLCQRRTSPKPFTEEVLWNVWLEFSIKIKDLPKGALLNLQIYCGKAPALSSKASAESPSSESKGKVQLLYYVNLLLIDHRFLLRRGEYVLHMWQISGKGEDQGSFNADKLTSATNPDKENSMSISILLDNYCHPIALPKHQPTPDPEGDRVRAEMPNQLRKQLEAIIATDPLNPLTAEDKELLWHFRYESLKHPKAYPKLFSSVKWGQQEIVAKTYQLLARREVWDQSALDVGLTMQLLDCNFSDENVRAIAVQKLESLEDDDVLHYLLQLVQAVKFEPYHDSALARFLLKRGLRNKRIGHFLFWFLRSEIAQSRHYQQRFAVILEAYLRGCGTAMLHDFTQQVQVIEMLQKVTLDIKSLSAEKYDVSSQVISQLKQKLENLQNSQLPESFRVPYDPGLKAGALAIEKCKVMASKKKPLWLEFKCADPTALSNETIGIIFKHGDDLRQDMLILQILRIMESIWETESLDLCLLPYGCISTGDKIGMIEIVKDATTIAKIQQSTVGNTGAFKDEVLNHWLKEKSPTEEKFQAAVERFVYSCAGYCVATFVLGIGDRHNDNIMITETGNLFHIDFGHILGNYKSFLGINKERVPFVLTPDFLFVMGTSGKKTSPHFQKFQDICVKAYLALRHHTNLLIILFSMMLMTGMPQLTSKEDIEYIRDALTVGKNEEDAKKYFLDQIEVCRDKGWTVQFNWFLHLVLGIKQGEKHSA
Criterion: IC50 strictly under 300 nM. Met: True. Not met: False.

Determine whether this compound shows IC50 lower than 300 nM (ties excluded): CS(=O)(=O)NC1CCN(Cc2cc3nc(-c4cnc(N)nc4)nc(N4CCOCC4)c3s2)C1 (racemic)
True

Take the compound COCC(=O)N(C)C1CCN(Cc2cc3nc(-c4cccc5[nH]ncc45)nc(N4CCOCC4)c3s2)C1 (racemic) and say whether its IC50 is less than 300 nM.
False

Consider CN(C1CCN(Cc2cc3nc(-c4cccc5[nH]ccc45)nc(N4CCOCC4)c3s2)CC1)S(C)(=O)=O . Does its IC50 lie strictly below 300 nM?
False

Please determine if CS(=O)(=O)NC1CCN(Cc2cc3nc(-c4cnc(N)nc4)nc(N4CCOCC4)c3s2)CC1 is below 300 nM in terms of IC50.
True

Would you kindly verify if IC50 of CC(=O)N(C)C1CCN(Cc2cc3nc(-c4cnc(N)nc4)nc(N4CCOCC4)c3s2)C1 (racemic) is strictly less than 300 nM?
True

Next:
Confirm or reject: IC50 of COCC(=O)N(C)C1CCCN(Cc2cc3nc(-c4cccc5[nH]ccc45)nc(N4CCOCC4)c3s2)C1 (racemic) lies strictly below 300 nM
False

Given the entry CC(=O)NC1CCCN(Cc2cc3nc(-c4cccc5[nH]ccc45)nc(N4CCOCC4)c3s2)C1 (racemic) , would its reported IC50 be below 300 nM?
False

Is 300 nM strictly greater than the compound's reported IC50? compound: CC(=O)N[C@@H]1CCN(Cc2cc3nc(-c4cnc(N)nc4)nc(N4CCOCC4)c3s2)C1
True

# strict comparison: is reported IC50 < 300 nM? input = CC(=O)NC1CCN(Cc2cc3nc(-c4cccc5[nH]ncc45)nc(N4CCOCC4)c3s2)C1 (racemic)
False

Could you please tell me whether IC50 recorded for CNC(=O)NC1CCCN(Cc2cc3nc(-c4cnc(N)nc4)nc(N4CCOCC4)c3s2)C1 (racemic) is less than 300 nM?
True

IC50 under 300 nM? Item: CNC(=O)NC1CCN(Cc2cc3nc(-c4cnc(N)nc4)nc(N4CCOCC4)c3s2)C1 (racemic)
True

Lab log: compare recorded IC50 with 300 nM; is it strictly lower for CC(=O)N(C)C1CCN(Cc2cc3nc(-c4cccc5[nH]ccc45)nc(N4CCOCC4)c3s2)C1 (racemic) ?
False

* * *

- method: Lipophilicity, logD of compound at pH 7.4 by HPLC-MS analysis
- measurementContext: buffer
Field 'label' (enum: Criterion met / Criterion not met). Set to Criterion met when logD is strictly under 3; else Criterion not met.

Solved cases below.
Answer whether the molecule CNC(=O)NC1CCCN(Cc2cc3nc(-c4cccc5[nH]ncc45)nc(N4CCOCC4)c3s2)C1 (racemic) has logD strictly less than 3
Criterion not met

Say whether its logD is strictly beneath 3. Entry: COCC(=O)N(C)C1CCN(Cc2cc3nc(-c4cnc(N)nc4)nc(N4CCOCC4)c3s2)C1 (racemic)
Criterion met

Take the molecule CNC(=O)NC1CCN(Cc2cc3nc(-c4cccc5[nH]ncc45)nc(N4CCOCC4)c3s2)CC1 and say whether its logD is less than 3.
Criterion not met

Lab log: compare recorded logD with 3; is it strictly lower for CNC(=O)NC1CCCN(Cc2cc3nc(-c4cccc5[nH]ccc45)nc(N4CCOCC4)c3s2)C1 (racemic) ?
Criterion not met

Please indicate whether the reported logD of CC(=O)N(C)C1CCN(Cc2cc3nc(-c4cnc(N)nc4)nc(N4CCOCC4)c3s2)CC1 is strictly below 3.
Criterion met

New cases:
# check: logD < 3 for CN(C1CCCN(Cc2cc3nc(-c4cccc5[nH]ccc45)nc(N4CCOCC4)c3s2)C1)S(C)(=O)=O (racemic)
Criterion not met

Say whether its logD is strictly beneath 3. Entry: CNC(=O)NC1CCN(Cc2cc3nc(-c4cnc(N)nc4)nc(N4CCOCC4)c3s2)CC1
Criterion met

Threshold test, logD < 3: COCC(=O)N(C)C1CCN(Cc2cc3nc(-c4cnc(N)nc4)nc(N4CCOCC4)c3s2)CC1
Criterion met

Consider the molecule CN(C1CCN(Cc2cc3nc(-c4cccc5[nH]ccc45)nc(N4CCOCC4)c3s2)C1)S(C)(=O)=O (racemic) . Is its logD strictly less than 3?
Criterion not met

Just wondering, is logD of COCC(=O)NC1CCN(Cc2cc3nc(-c4cnc(N)nc4)nc(N4CCOCC4)c3s2)CC1 below 3?
Criterion met

Say whether its logD is strictly beneath 3. Entry: CC(=O)N[C@@H]1CCN(Cc2cc3nc(-c4cnc(N)nc4)nc(N4CCOCC4)c3s2)C1
Criterion met

Here's an entry: CNC(=O)N(C)C1CCCN(Cc2cc3nc(-c4cnc(N)nc4)nc(N4CCOCC4)c3s2)C1 (racemic) . Is its logD below 3?
Criterion met

Recorded values, source ChEMBL document CHEMBL4414631.
